Every entry's value here was drawn from patent US6759384.

Biological target: human factor Xa (Enzyme Research Laboratories, Inc.) (human)
Assay: chromogenic FXa inhibition
Metric: Ki

1. Ac-pAph-Chg-Arg-Pen(CH2COOH)-Pro-NH2 (peptide): < 100 µM

### Prompt I have this substance here, Alloc-D-pAph-Chg-Arg-Leu-Pro-NH2 (peptide) , and I need its recorded Ki.
### Response < 100 µM

### Prompt I have this substance here, Ac-D-pAph-Chg-Arg-Gla-Pro-NH2 (peptide) , and I need its recorded Ki.
### Response < 100 µM

### Prompt I have this substance here, pAph-Chg-Arg-Leu-Pro-NH2 (peptide) , and I need its recorded Ki.
### Response < 100 µM

### Prompt I have this substance here, Ac-pAph-Chg-Arg-NH2 (peptide) , and I need its recorded Ki.
### Response < 100 µM

### Prompt I have this substance here, (2-benzofuroyl)-Tyr-Chg-Arg-Pen-Pro-NH2 (peptide) , and I need its recorded Ki.
### Response < 100 µM

### Prompt I have this substance here, Ac-D-pAph-Chg-Arg-NH2 (peptide) , and I need its recorded Ki.
### Response < 100 µM

### Prompt I have this substance here, Ac-pAph-Chg-Arg-N[1(1,3-dicarboxy)propyl)]Gly-Pro-NH2 (peptide) , and I need its recorded Ki.
### Response < 100 µM

### Prompt I have this substance here, (2-benzofuroyl)-pAph-Chg-Arg-Pen(CH2COOH)-Pro-NH2 (peptide) , and I need its recorded Ki.
### Response < 100 µM
